Biological target: Dickkopf-related protein 1 (Homo sapiens)
Assay: DKK1 binders on small-molecule microarrays, primary screen, biochemical, small-molecule microarray, 635 nm fluorescence scan (AID 1106);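 also: score merges emission near 667 nm with signal to noise over three replicate slides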
Conditions: DKK1 binding, higher = more signal
QUANTITY: composite z-score
Returns: the value as a bare number; no unit string appended.

Completed entries (count: 8):
## Task Identify composite z-score associated with the molecule `C=CCOC(=O)[C@@H]1[C@H]2C(=O)O[C@H](c3ccccc3)[C@H](c3ccccc3)N2[C@H](c2ccc(OCCOC(=O)[C@@H]3C[C@@H]4C(=O)NCC(=O)N4[C@@H]3c3cccc(OCCO)c3)cc2)[C@@]12C(=O)Nc1ccc(I)cc12`
## Result 0.866

## Task Identify composite z-score associated with the molecule `CC(C)C[C@@H]1NC(=O)[C@H]2C[C@@H](C(=O)NCCCCCCNC(=O)CS)[C@@H](c3cccc(OCCO)c3)N2C1=O`
## Result 1.94

## Task Identify composite z-score associated with the molecule `Cc1ccc(S[C@]2(C(=O)NCCN3CCOCC3)CC(=O)N(Cc3cc(C(F)(F)F)cc(C(F)(F)F)c3)[C@@H]2c2ccc(CO)cc2I)cc1`
## Result -1.34

## Task Identify composite z-score associated with the molecule `COc1ccc(C(=O)Nc2cccc(CN3C(=O)[C@@]4(O[C@@H](CCn5cc(CCO)nn5)[C@H]([Si](C)(C)c5ccc(OC)cc5)[C@H]4C)c4ccccc43)c2)cc1`
## Result 0.851

## Task Identify composite z-score associated with the molecule `C=CCNC(=O)[C@@H]1[C@H]2C(=O)O[C@H](c3ccccc3)[C@H](c3ccccc3)N2[C@H](c2ccc(O)cc2)[C@@]12C(=O)N(C(=O)OCCOC)c1ccccc12`
## Result -0.232

## Task Identify composite z-score associated with the molecule `O=C1c2ccccc2[C@@]2(Cc3ccccc3N(Cc3ccccc3)C2=O)[C@H](c2ccc(CO)cc2)N1C1CCCCC1`
## Result 0.662

## Task Identify composite z-score associated with the molecule O=C1OCCC=C[C@H]2OC34C=CCN(c5ccc6ccccc6c5)C(=O)[C@H]3N(CCCCCO)C(=O)[C@@H]4C12 (some centres undefined)
## Result -0.731

## Task Identify composite z-score associated with the molecule `COc1ccc([Si](C)(C)[C@@H]2[C@@H](CCn3cc([C@H](O)c4ccccc4)nn3)O[C@]3(C(=O)N(Cc4cccc(N5CCOC5=O)c4)c4ccccc43)[C@H]2C)cc1`
## Result -1.13

Further cases:
## Task Identify composite z-score associated with the molecule `COCC(=C=CC[C@@H](O)c1ccc(CO)o1)CCO`
## Result 0.618

## Task Identify composite z-score associated with the molecule CCN(CC)c1ccc(N2CC=CC34O[C@@H]5C=CCCOC(=O)C5[C@H]3C(=O)N(CCCCCO)[C@@H]4C2=O)cc1 (some centres undefined)
## Result -0.182

## Task Identify composite z-score associated with the molecule `C=CC[C@@H](OC(=O)Nc1ccc(OC)cc1)c1ccc(O)c2ccccc12`
## Result 1.23

## Task Identify composite z-score associated with the molecule [N-]=[N+]=NCc1ccccc1C[C@]1(C(=O)NCC(O)CO)N=C(c2ccc(OCCCO)cc2)O[C@H]1c1ccccc1N=[N+]=[N-] (some centres undefined)
## Result -0.894

## Task Identify composite z-score associated with the molecule `COC(=O)[C@@]1(Cc2ccccc2)[C@H]2c3cc(C(=O)N(C)C)n(Cc4c(-c5ccccc5)noc4C)c3C[C@H]2CN1C(=O)c1ccccc1`
## Result -0.0672

## Task Identify composite z-score associated with the molecule CC(C)c1ccc(NN2C(C(O)c3cccc(O)c3)C=CC3C(=O)N(c4ccccc4)C(=O)C32)cc1 (centres undefined)
## Result -0.0143

###

Assay: cell viability in Huh7 cells, primary screen, cytotoxicity control for HCV replication inhibitor project, CellTiter-Glo luminescence, basal, 48 h (AID 1143);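 also: Huh7 hepatoma cells carrying a hepatitis C replication reporter with no stimulus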
Details: Huh7 HCV replicon, higher = more signal, called active from +8 up or from −8 down
Recorded z-score, one value per entry.
Returns: the value as a bare number; no unit string appended.

Completed entries (count: 2):
## Task Identify z-score associated with the compound C=CCC(OC(C)=O)[C@@H]1[C@@H](N(Cc2ccc(-c3ccccc3)cc2)C(=O)Cc2ccc(F)cc2)c2cc(OCCCO)ccc2N1C(=O)c1ccc2ccccc2n1 (stereo partly drawn)
## Result 0.0753

## Task Identify z-score associated with the compound `CC(C)(C)OC(=O)CC[C@@]1(C(=O)NCCN2CCOCC2)N=C(c2ccc(OCCCO)cc2)O[C@@H]1c1ccccc1`
## Result 0.256

With those in mind, consider the next compound.
## Task Identify z-score associated with the compound `COCCOC(=O)N1C(=O)[C@@]2(c3cc(C#CCNC(N)=O)ccc31)[C@H](C(=O)N1CCN(c3ncccn3)CC1)[C@H]1C(=O)O[C@H](c3ccccc3)[C@H](c3ccccc3)N1[C@@H]2c1ccccc1OCCO`
## Result -1.32

###

Target: NADPH oxidase 2 (Homo sapiens) (UniProt P04839)
Sequence (P04839 whole entry, looked up): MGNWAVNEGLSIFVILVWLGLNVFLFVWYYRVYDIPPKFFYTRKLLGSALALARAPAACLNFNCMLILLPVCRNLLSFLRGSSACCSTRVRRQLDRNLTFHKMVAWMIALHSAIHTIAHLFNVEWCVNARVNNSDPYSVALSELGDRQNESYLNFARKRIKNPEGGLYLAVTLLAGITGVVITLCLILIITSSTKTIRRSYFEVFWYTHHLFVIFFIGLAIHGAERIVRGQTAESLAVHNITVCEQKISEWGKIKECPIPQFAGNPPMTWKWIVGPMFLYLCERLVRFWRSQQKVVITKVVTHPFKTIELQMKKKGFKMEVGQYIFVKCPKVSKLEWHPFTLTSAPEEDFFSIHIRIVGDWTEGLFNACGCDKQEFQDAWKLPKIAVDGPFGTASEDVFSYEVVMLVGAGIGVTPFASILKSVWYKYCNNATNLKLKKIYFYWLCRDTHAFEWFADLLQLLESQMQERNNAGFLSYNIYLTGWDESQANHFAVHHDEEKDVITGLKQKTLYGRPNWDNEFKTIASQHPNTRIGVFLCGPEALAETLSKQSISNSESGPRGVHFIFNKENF
Experiment: NOX2-dependent H2O2 signal modulators, primary screen, NOX inhibitor project, cell-based, HEK293-NOX2, PMA-stimulated, Amplex Red fluorescence (AID 1159)
Conditions: 45 min, higher = more signal, called active from +8 up or from −8 down
Recorded z-score, one value per entry.
Returns: the value as a bare number; no unit string appended.

Completed entries (count: 5):
## Task Identify z-score associated with the compound `COC(=O)[C@@]1(Cc2ccccc2)[C@H]2c3cc(C(=O)N4CCCC4)n(C)c3C[C@H]2CN1C(=O)c1ccccc1`
## Result -0.153

## Task Identify z-score associated with the compound C=CC(COC(C)=O)NS(=O)(=O)c1ccc(Br)cc1 (stereo not given)
## Result -0.334

## Task Identify z-score associated with the compound O=C1C2C=CC(C(O)c3ccc(-c4ccccc4)s3)N(n3cnnc3)C2C(=O)N1Cc1ccccc1 (stereo not given)
## Result -0.547

## Task Identify z-score associated with the compound `CC(C)N1C(=O)[C@@]2(c3ccc([N+](=O)[O-])cc3)CC(=O)N(CC34CC5CC(CC(C5)C3)C4)[C@@H]2c2ccc(CO)cc21`
## Result 0.306

## Task Identify z-score associated with the compound `CC(C)(C)OC(=O)CC[C@]1(C(=O)N2CCCCC2)N=C(c2ccc(OCCCO)cc2)O[C@H]1c1ccccc1N=[N+]=[N-]`
## Result -3.53

Further cases:
## Task Identify z-score associated with the compound O=C1OCCC=C[C@H]2OC34C=CCN(Cc5ccccc5)C(=O)[C@H]3N(CCCCCO)C(=O)[C@@H]4C12 (stereo not given in full)
## Result 1.39

###

Recorded z-score, one value per entry.
Assay: inhibitors of hydroxyurea-induced Chk1 phosphorylation, primary screen, imaging, HeLa, phospho-Chk1 antibody, percent positive cells (AID 1186)
Details: hydroxyurea-induced phospho-Chk1 immunofluorescence imaging, higher = more signal
Returns: the value as a bare number; no unit string appended.

## Task Identify z-score associated with the compound `CC(=O)Nc1cc(Br)ccc1C(=O)O`
## Result 0.1

Further cases:
## Task Identify z-score associated with the compound COc1ccc(C(O)C2C=CC3C(=O)N(c4ccccc4)C(=O)C3N2Nc2ccc([N+](=O)[O-])cc2)cc1OCc1ccccc1 (stereo not drawn)
## Result -0.105

## Task Identify z-score associated with the compound CC(C)C(O)C1C=CC2C(=O)N(c3ccccc3)C(=O)C2N1Nc1ccc(C#N)cc1 (stereo not drawn)
## Result -0.877

###

System: XIP peptide (Xip251-270)
Assay: small-molecule binders of XIP peptide, primary screen, biochemical, small-molecule microarray, fluorescence 635/667 nm, 0.5 µg/mL protein (AID 1183)
Conditions: small-molecule microarray binding, fluorescence 635 nm; higher = more signal
Recorded composite z-score, one value per entry.
Returns: the value as a bare number; no unit string appended.

## Task Identify composite z-score associated with the molecule `COC(=O)c1c(CC[C@@H](CO)NC(=O)N[C@@H](Cc2ccccc2)Cn2cc(C3(O)CCCCC3)nn2)oc(C(C)=O)c1C(=O)OC`
## Result 0.536

## Task Identify composite z-score associated with the molecule CC=CC(O)C1C=CC2C(=O)N(c3ccccc3)C(=O)C2N1Nc1ccc(C(C)C)cc1 (configuration not stated)
## Result 0.766

## Task Identify composite z-score associated with the molecule `COC(=O)[C@@]1(Cc2ccccc2)[C@H]2c3cc(C(=O)N4CCCC4)n(Cc4ccc(C)o4)c3C[C@H]2CN1C(=O)c1ccccc1`
## Result 0.814

## Task Identify composite z-score associated with the molecule Cc1cc(C)cc(N2C(=O)CS(=O)(=O)C2c2cccc([N+](=O)[O-])c2)c1 (configuration not stated)
## Result 0.0376

## Task Identify composite z-score associated with the molecule `COCCOC(=O)N1C(=O)[C@@]2(c3cc(C#CCNC(N)=O)ccc31)[C@H](c1ccc(O)cc1)N1[C@H](c3ccccc3)[C@H](c3ccccc3)OC(=O)[C@H]1[C@@H]2C(=O)Nc1nc2ccccc2s1`
## Result -0.132

## Task Identify composite z-score associated with the molecule `O=C1N(CCS(=O)(=O)c2ccccc2)Cc2ccccc2C[C@]12N=C(c1ccc(OCCCO)cc1)O[C@@H]2c1ccccc1`
## Result 0.789

Further cases:
## Task Identify composite z-score associated with the molecule `O=C1[C@]2(CO)C=C(Br)[C@@H](C[C@@H]2c2ccccc2)[C@@]12CO2`
## Result 0.0525

The origin of these recorded values is PubChem BioAssay.
